Recorded IC50 for the following molecules
Target: UniProt:P50406
Experiment: Antagonist activity at human cloned 5HT6 receptor expressed in human HeLa cells assessed as blockage of 5-HT-stimulated cAMP formation after 10 mins by radioimmunoassay
Assay Endpoint: IC50 (nM)

| Compound Structure | Assay Endpoint | Unit Abbreviation | Obs Value |
| --- | --- | --- | --- |
| COc1cccc(S(=O)(=O)c2cccc3oc(N4CCNCC4)nc23)c1 | IC50 | nM | 100 |
| O=S(=O)(c1cccc(C(F)(F)F)c1)c1cccc2oc(N3CCNCC3)nc12 | IC50 | nM | 120 |
| CCN1CCN(c2nc3c(S(=O)(=O)c4cccc5ccccc45)cccc3o2)CC1 | IC50 | nM | 248 |
| O=S(=O)(c1cccc2ccccc12)c1cccc2oc(N3CCNCC3)nc12 | IC50 | nM | 96 |
| CN1CCN(c2nc3c(S(=O)(=O)c4cccc5ccccc45)cccc3o2)CC1 | IC50 | nM | 105 |
| O=S(=O)(c1cc(Cl)ccc1Cl)c1cccc2oc(N3CCNCC3)nc12 | IC50 | nM | 117 |
| O=S(=O)(c1cccc2ccccc12)c1cccc2nc(N3CCNCC3)oc12 | IC50 | nM | 77 |

====

For reference, pKi measured on 5-hydroxytryptamine receptor 6 (Homo sapiens):
pKi: −log10 of the molar value.

| Compound Structure | pKi |
| --- | --- |
| O=S(=O)(c1cccc2ccccc12)c1cccc2oc(N3CCN(CCCc4ccccc4)CC3)nc12 | 6.90 |
| O=S(=O)(c1cccc2ccccc12)c1cccc2oc(N3CCN(C4CCCC4)CC3)nc12 | 7.10 |
| CN1CCN(c2nc3c(S(=O)(=O)c4cccc5ccccc45)cccc3o2)CC1 | 8.01 |

====

Biological target: 5-hydroxytryptamine receptor 6 (Homo sapiens)
Assay: Antagonist activity at human cloned 5HT6 receptor expressed in human HeLa cells assessed as blockage of 5-HT-stimulated cAMP formation after 10 mins by radioimmunoassay
Format: functional, cell-based
Decide using Imax: a value greater than or equal to 90% is criterion met, a smaller one is criterion not met.

| Compound Structure | Classification |
| --- | --- |
| O=S(=O)(c1cccc(C(F)(F)F)c1)c1cccc2oc(N3CCNCC3)nc12 | criterion met |
| CN1CCN(c2nc3c(S(=O)(=O)c4cccc5ccccc45)cccc3o2)CC1 | criterion not met |
| O=S(=O)(c1cccc2ccccc12)c1cccc2nc(N3CCNCC3)oc12 | criterion met |
| O=S(=O)(c1cccc2ccccc12)c1cccc2oc(N3CCNCC3)nc12 | criterion met |

====

Target: 5-hydroxytryptamine receptor 6 (Homo sapiens, UniProt P50406)
Sequence (P50406 whole entry): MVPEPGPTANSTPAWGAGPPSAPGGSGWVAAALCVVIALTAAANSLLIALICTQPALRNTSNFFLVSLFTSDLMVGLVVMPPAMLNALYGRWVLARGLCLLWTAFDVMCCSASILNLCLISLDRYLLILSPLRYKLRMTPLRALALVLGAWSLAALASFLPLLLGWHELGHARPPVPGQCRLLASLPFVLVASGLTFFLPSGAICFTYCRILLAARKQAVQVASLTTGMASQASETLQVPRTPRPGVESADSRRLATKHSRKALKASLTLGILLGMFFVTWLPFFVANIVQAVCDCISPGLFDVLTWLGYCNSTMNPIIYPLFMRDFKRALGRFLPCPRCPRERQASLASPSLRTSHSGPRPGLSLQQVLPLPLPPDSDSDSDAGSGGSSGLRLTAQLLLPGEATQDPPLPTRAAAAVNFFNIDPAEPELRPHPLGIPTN
Assay: Antagonist activity at human cloned 5HT6 receptor expressed in human HeLa cells assessed as blockage of 5-HT-stimulated cAMP formation after 10 mins by radioimmunoassay
Type: functional, cell-based

| Compound Structure | Target Or System | Imax [%] |
| --- | --- | --- |
| O=S(=O)(c1cc(Cl)ccc1Cl)c1cccc2oc(N3CCNCC3)nc12 | 5-hydroxytryptamine receptor 6 (Homo sapiens, UniProt P50406) | 92 |
| CCN1CCN(c2nc3c(S(=O)(=O)c4cccc5ccccc45)cccc3o2)CC1 | 5-hydroxytryptamine receptor 6 (Homo sapiens, UniProt P50406) | 89 |
| COc1cccc(S(=O)(=O)c2cccc3oc(N4CCNCC4)nc23)c1 | 5-hydroxytryptamine receptor 6 (Homo sapiens, UniProt P50406) | 92 |
